- tested system: PI3Kα (p110[H1047R]/p85) kinase (Homo sapiens, UniProt P42336, H1047R)
- Sequence (P42336 whole entry H1047R): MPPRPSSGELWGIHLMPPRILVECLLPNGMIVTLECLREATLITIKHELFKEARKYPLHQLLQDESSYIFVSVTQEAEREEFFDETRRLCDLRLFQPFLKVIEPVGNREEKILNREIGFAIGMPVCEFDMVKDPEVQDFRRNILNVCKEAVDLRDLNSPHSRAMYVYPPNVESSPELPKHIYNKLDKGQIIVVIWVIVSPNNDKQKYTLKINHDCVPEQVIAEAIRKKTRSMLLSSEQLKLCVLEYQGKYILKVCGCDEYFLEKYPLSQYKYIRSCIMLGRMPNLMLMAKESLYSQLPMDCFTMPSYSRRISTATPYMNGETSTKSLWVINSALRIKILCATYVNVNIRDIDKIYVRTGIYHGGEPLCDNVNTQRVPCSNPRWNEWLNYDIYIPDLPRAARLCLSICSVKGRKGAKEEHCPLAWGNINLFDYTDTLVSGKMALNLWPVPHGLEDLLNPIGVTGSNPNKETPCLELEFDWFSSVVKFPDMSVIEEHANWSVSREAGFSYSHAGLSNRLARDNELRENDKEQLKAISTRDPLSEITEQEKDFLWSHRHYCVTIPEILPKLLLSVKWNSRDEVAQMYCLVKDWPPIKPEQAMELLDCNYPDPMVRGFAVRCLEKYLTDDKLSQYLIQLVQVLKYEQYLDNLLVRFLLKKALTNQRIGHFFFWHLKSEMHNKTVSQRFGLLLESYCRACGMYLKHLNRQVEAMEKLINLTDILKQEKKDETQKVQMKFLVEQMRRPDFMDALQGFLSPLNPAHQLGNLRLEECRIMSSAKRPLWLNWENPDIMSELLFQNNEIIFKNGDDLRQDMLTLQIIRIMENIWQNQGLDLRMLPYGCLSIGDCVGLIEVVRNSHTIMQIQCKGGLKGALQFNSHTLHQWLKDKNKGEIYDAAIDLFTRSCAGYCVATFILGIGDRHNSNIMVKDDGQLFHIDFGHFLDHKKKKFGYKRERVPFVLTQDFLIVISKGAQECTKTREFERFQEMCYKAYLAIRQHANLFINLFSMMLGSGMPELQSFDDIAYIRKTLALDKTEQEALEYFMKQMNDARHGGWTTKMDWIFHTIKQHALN
- Sequence (P27986 whole entry partner): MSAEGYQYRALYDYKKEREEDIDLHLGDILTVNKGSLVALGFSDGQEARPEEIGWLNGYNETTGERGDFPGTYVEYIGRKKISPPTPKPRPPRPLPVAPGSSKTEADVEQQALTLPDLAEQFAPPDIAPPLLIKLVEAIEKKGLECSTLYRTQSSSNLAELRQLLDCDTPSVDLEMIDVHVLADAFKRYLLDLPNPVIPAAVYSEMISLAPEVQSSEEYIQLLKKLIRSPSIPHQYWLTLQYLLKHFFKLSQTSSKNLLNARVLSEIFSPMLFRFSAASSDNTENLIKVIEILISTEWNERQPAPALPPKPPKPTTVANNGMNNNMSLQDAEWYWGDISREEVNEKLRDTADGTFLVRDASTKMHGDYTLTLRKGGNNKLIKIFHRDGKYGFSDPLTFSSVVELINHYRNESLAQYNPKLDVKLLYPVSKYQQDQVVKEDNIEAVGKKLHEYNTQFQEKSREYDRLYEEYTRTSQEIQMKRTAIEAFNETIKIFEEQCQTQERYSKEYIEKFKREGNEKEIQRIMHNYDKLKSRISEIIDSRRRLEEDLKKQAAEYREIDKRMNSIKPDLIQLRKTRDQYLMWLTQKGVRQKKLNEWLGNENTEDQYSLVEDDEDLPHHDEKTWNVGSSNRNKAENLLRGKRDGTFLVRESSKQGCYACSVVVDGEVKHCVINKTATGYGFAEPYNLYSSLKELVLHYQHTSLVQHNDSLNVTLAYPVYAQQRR
- protocol description: PI3Kα (p110[H1047R]/p85) kinase ADP-Glo Assay
- Format: biochemical
- experimental conditions: ADP-Glo Assay IC50 ratio, 25 uM ATP
The label is label 1 for selectivity: WT/H1047R below 10 and label 0 for selectivity: WT/H1047R equal to or exceeding 10.

Criterion: selectivity: WT/H1047R strictly below 10. Is it met by COc1ncc(-c2cc3c([C@H](C)Nc4ccccc4C(=O)O)cc(C)cc3c(=O)n2C)cc1F [Example 60] ?
label 1

Next record, please: CC#Cc1cc2c(C(C)Nc3ccccc3C(=O)O)cc(C)cc2c(=O)n1C (centres unmarked) [Example 27]
label 0

Another: Cc1cc(C(C)Nc2ccccc2C(=O)O)c2cc(C#Cc3cnn(C)c3)n(C)c(=O)c2c1 (centres unmarked) [Example 80]
label 0

Now the compound Cc1cc(C(C)Nc2ccccc2C(=O)O)c2cc(NC(=O)c3ccccc3)n(C)c(=O)c2c1 (centres unmarked) [Example 24]
label 0

Now the same for Cc1cc(C(C)Nc2ccccc2C(=O)O)c2cc(-c3ccc(C#N)cc3)n(C)c(=O)c2c1 (centres unmarked) [Example 4]
label 1

Next up: Cc1cc(C(C)Nc2ccccc2C(=O)O)c2cc(-c3cnn(-c4cccc(C#N)c4)c3)n(C)c(=O)c2c1 (centres unmarked) [Example 29]
label 0

Now consider Cc1cc([C@H](C)Nc2ccccc2C(=O)O)c2cc(-c3ccc(C(C)(C)O)nc3)n(C)c(=O)c2c1 [Example 57] and answer again.
label 1

Now the compound Cc1cc(C(C)Nc2ccccc2C(=O)O)c2cc(-c3cnc(C(C)(C)O)nc3)n(C)c(=O)c2c1 (centres unmarked) [Example 66]
label 0
